- System: HeLa
- protocol: Cellular uptake in human HeLa cells measured per mg of protein at 20.5 uM after 24 hrs by fluorescence measurements
- Format: ADME, cell-based
Recorded Drug uptake values for a group of compounds are listed next.
measured-attribute: Drug uptake (nmol/mg)

CC1(C)Cc2cc3[nH]c(cc4nc(cc5[nH]c(cc1n2)cc5-c1cc(O)cc(O)c1)CC4(C)C)cc3-c1cc(O)cc(O)c1; 13.5
CC1(C)Cc2cc3[nH]c(cc4nc(cc5[nH]c(cc1n2)cc5C(=O)/C=C/c1cc(O)cc(O)c1)CC4(C)C)cc3C(=O)/C=C/c1cc(O)cc(O)c1; 1.8
CC1(C)Cc2cc3[nH]c(cc4nc(cc5[nH]c(cc1n2)cc5-c1cc(OCCO)cc(OCCO)c1)CC4(C)C)cc3-c1cc(OCCO)cc(OCCO)c1; 10.4
CC1(C)Cc2cc3[nH]c(cc4nc(cc5[nH]c(cc1n2)cc5C(=O)N(CCN)CCN)CC4(C)C)cc3C(=O)N(CCN)CCN; 1.8
CC1(C)Cc2cc3[nH]c(cc4nc(cc5[nH]c(cc1n2)cc5CN(CCO)CCO)CC4(C)C)cc3CN(CCO)CCO; 8.2
COCCOCCOCCOCCNCc1cc(CNCCOCCOCCOCCOC)cc(-c2c3nc(cc4[nH]c(cc4-c4ccc(C)cc4)c(OC)c4nc(cc5[nH]c2cc5-c2ccc(C)cc2)C(C)(C)C4)C(C)(C)C3)c1; 3.9

###

- protocol: Octanol-water partition coefficient, log P by stir-flask method
- Format: physicochemical
- condition-parameters: read-out: logP
measured-attribute: logP

CC1(C)Cc2cc3[nH]c(cc4nc(cc5[nH]c(cc1n2)cc5C#CC[N+](C)(C)C)CC4(C)C)cc3C#CC[N+](C)(C)C.[Cl-].[Cl-]; 0.9
CC1(C)Cc2cc3[nH]c(cc4nc(cc5[nH]c(cc1n2)cc5CN(CCO)CCO)CC4(C)C)cc3CN(CCO)CCO; 2.3
COCCC(CCOC)c1cc2cc3nc(cc4[nH]c(cc5nc(cc1[nH]2)CC5(C)C)cc4C(CCOC)CCOC)CC3(C)C; ≥ 2.5
CC1(C)Cc2cc3[nH]c(cc4nc(cc5[nH]c(cc1n2)cc5-c1cc(O)cc(O)c1)CC4(C)C)cc3-c1cc(O)cc(O)c1; ≥ 2.5
COCCN(CCOC)C(=O)c1cc2cc3nc(cc4[nH]c(cc5nc(cc1[nH]2)CC5(C)C)cc4C(=O)N(CCOC)CCOC)CC3(C)C; ≥ 1.9
CC1(C)Cc2cc3[nH]c(cc4nc(cc5[nH]c(cc1n2)cc5C(=O)/C=C/c1cc(O)cc(O)c1)CC4(C)C)cc3C(=O)/C=C/c1cc(O)cc(O)c1; ≥ 1.8
CC1(C)Cc2cc3[nH]c(cc4nc(cc5[nH]c(cc1n2)cc5C(=O)N(CCN)CCN)CC4(C)C)cc3C(=O)N(CCN)CCN; -1.4

###

- protocol: Octanol-water partition coefficient, log P by stir-flask method
- Format: physicochemical
- condition-parameters: read-out: logP
measured-attribute: logP

CC1(C)Cc2cc3[nH]c(cc4nc(cc5[nH]c(cc1n2)cc5C(=O)O)CC4(C)C)cc3C(=O)O; 1.4
CC1(C)Cc2cc3[nH]c(cc4nc(cc5[nH]c(cc1n2)cc5C(=O)NCCN)CC4(C)C)cc3C(=O)NCCN; -0.5
